Target: C-C chemokine receptor type 4 (Homo sapiens); also: in other assays of this panel Not Active means under 50% inhibition at 10 µM
Sequence (P51679 whole entry): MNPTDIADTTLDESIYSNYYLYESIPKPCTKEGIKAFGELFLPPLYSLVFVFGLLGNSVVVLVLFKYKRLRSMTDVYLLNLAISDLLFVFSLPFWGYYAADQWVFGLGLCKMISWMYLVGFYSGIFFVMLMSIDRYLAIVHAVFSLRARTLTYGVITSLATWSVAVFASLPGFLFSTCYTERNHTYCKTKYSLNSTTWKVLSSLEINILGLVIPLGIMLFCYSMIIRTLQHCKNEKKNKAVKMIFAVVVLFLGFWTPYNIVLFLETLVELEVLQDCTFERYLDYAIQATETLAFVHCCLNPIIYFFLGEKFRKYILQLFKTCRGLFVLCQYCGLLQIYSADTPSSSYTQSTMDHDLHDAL
Format: cell membranes, Membrane
Details: chem-1
parameterMeasured: IC50

Example entries and their recorded answers appear below.
>>> recordedvalue("C#C[C@]1(O)CC[C@H]2[C@@H]3CCc4cc(O)ccc4[C@H]3CC[C@@]21C [ETHINYL ESTRADIOL]")
"Not Active"
>>> recordedvalue("Nc1nc(N)nc(NC2CC2)n1 [CYROMAZINE]")
"Not Active"
>>> recordedvalue("NC[C@H]1O[C@H](O[C@H]2[C@H](O)[C@@H](O[C@H]3O[C@H](CO)[C@@H](O)[C@H](N)[C@H]3O)[C@H](N)C[C@@H]2N)[C@H](N)C[C@@H]1O [TOBRAMYCIN]")
"Not Active"
>>> recordedvalue("CC(C)OC(=O)C(C)(C)Oc1ccc(C(=O)c2ccc(Cl)cc2)cc1 [FENOFIBRATE]")
"Not Active"

Now for the compound whose IC50 we want.
Indicate the recorded IC50 value for this compound: OCCO [ETHYLENE GLYCOL] Not Active
